B1: KLHDC10 (parent)
chain: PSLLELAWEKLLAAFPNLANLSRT

- Variants of: B1
- Assay Summary: protein stability index of a GFP-peptide fusion (GPS, HEK-293T) (PSI 1-6); higher = more stable;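 further: lentivirally expressed fusions sorted by FACS into six bins by GFP to DsRed ratio, PSI derived from sequencing read proportions per bin multiplied by bin number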
- Condition: c terminus: a fixed tail appended
Assay Endpoint: protein stability index
Give bare numbers.

These recorded examples may help you get a feel for the data.
S22G	1.9
L18Y	1.86
L21Q	2.05
W8R	2.52
L3R	2.06
T24W	2.28
T24R	2.6
L12I	2.12
N20G	2.12
L21W	2.6

Each variant below has a reported value. Please supply its protein stability index.
1. T24F
2. S2Q
3. L18Q
4. L11E
5. L11N

2.06
1.79
2.35
2.55
2.26
